# Test system: (S)-selective ω-transaminase derived from O. anthropi
# experimentalProtocol: Substrate specificity of (S)-selective ω-transaminase toward keto acids
# Format: biochemical, Ochrobactrum anthropi
# cond: keto acid 20 mM, (S)-α-methylbenzylamine 20 mM, 50 mM potassium phosphate pH 7, 37° C., 10 min
Assign 1.0 whenever Acetophenone (mM) O. anthropi does not fall below 0.006 mM; assign 0.0 whenever it does.

Here are 3 compounds together with their reported answers.
compound	discreteLabel
CC(C)C(=O)C(=O)O [3-Methyl-2-oxobutyrate]	0.0
O=C(O)C(=O)CO [β-Hydroxypyruvate]	1.0
O=CC(=O)O [Glyoxylate]	1.0

Hello, I need to know if CC(C)(C)C(=O)C(=O)O [Trimethylpyruvate] has measured Acetophenone (mM) O. anthropi not below 0.006 mM. Thanks!
0.0

Acetophenone (mM) O. anthropi >= 0.006 mM for CC(C)CC(=O)C(=O)O [4-Methyl-2-oxopentanoate] ?
0.0

---

# Test system: (S)-selective ω-transaminase derived from O. anthropi
# experimentalProtocol: Substrate specificity of (S)-selective ω-transaminase toward keto acids
# Type: biochemical, Ochrobactrum anthropi
# cond: keto acid 20 mM, (S)-α-methylbenzylamine 20 mM, 50 mM potassium phosphate pH 7, 37° C., 10 min
Classification field: True = Acetophenone (mM) O. anthropi at or over 0.001 mM; False = Acetophenone (mM) O. anthropi under 0.001 mM.

compound	discreteLabel
CCC(=O)C(=O)O [2-Oxobutyrate]	True
O=CC(=O)Oc1ccccc1 [Phenyl glyoxylate]	False
O=C(O)C(=O)CF [Fluoropyruvate]	True

Entry O=C(O)CCC(=O)C(=O)O [α-Ketoglutarate] : is its Acetophenone (mM) O. anthropi no less than 0.001 mM?
False

Is Acetophenone (mM) O. anthropi for CCCC(=O)C(=O)O [2-Oxopentanoate] at or above 0.001 mM?
True

Hi team, for O=C(O)C(=O)CS [Mercaptopyruvate] , is the recorded Acetophenone (mM) O. anthropi at or above 0.001 mM?
True

Please check the record O=C(O)C(=O)C12CC3CC(CC(O)(C3)C1)C2 [2-(3-Hydroxy-1-adamantyl)-oxoethanoate] and state if its Acetophenone (mM) O. anthropi is at or above 0.001 mM.
False

---

# Tested on: (S)-selective ω-transaminase derived from O. anthropi
# experimentalProtocol: Substrate specificity of ω-transaminase toward 11 racemic amines (initial rate, relative reactivity)
# Format: biochemical, Ochrobactrum anthropi
# cond: racemic amine 10 mM, pyruvate 10 mM, 0.125 U/ml enzyme, PLP 0.1 mM, pH 7.5, 37° C., 10 min; activity toward α-methylbenzylamine defined as 100%
# Experimental: An investigation was made as to the substrate specificities of the (S)-selective ω-transaminase derived from O. anthropi, which was purified in Example 7, toward 11 amines: α-methylbenzylamine 1a, 4-fluoro-α-methylbenzylamine 1b, α-ethylbenzylamine 1c, 1-methyl-3-phenylpropylamine 1d, 1-aminoindane 1e, sec-butylamine 1f, cyclopropylethylamine 1g, 2-aminopentane 1h, 2-aminooctane 1i, 1-methoxy-2-propylamine 1j, and alaninol 1k. […]
readoutName: Relative reactivity (%)
Report the value in % with no unit label.

The following molecules have reported results that may help.
molecule	testTarget	Relative reactivity (%)
CCC(N)c1ccccc1 (racemic) [Substrate 1c, α-ethylbenzylamine]	(S)-selective ω-transaminase derived from O. anthropi	18
CC(N)CCc1ccccc1 (racemic) [Substrate 1d, 1-methyl-3-phenylpropylamine]	(S)-selective ω-transaminase derived from O. anthropi	70
CC(N)c1ccc(F)cc1 (racemic) [Substrate 1b, 4-fluoro-α-methylbenzylamine]	(S)-selective ω-transaminase derived from O. anthropi	91
NC1CCc2ccccc21 (racemic) [Substrate 1e, 1-aminoindane]	(S)-selective ω-transaminase derived from O. anthropi	64
CCCC(C)N (racemic) [Substrate 1h, 2-aminopentane]	(S)-selective ω-transaminase derived from O. anthropi	29
CC(N)CO (stereo not shown) [Substrate 1k, alaninol]	(S)-selective ω-transaminase derived from O. anthropi	63
CCCCCCC(C)N (racemic) [Substrate 1i, 2-aminooctane]	(S)-selective ω-transaminase derived from O. anthropi	146
CCC(C)N (racemic) [Substrate 1f, sec-butylamine]	(S)-selective ω-transaminase derived from O. anthropi	54

(S)-selective ω-transaminase derived from O. anthropi data for COCC(C)N (racemic) [Substrate 1j, 1-methoxy-2-propylamine] ; its Relative reactivity (%): 60
